molecular target: MEK1 (Homo sapiens, UniProt Q02750); construct: purchased Thermo Fisher Scientific Inc. (MEK1, CRAF); Carna Biosciences, Inc. (ERK2); test: MEK1-inhibiting activity, fluorescent polarization method (CRAF/MEK1/ERK2 cascade, IMAP); format: biochemical; conditions: Table 3; read-out: MEK1 IC50
Sequence (Q02750 whole entry): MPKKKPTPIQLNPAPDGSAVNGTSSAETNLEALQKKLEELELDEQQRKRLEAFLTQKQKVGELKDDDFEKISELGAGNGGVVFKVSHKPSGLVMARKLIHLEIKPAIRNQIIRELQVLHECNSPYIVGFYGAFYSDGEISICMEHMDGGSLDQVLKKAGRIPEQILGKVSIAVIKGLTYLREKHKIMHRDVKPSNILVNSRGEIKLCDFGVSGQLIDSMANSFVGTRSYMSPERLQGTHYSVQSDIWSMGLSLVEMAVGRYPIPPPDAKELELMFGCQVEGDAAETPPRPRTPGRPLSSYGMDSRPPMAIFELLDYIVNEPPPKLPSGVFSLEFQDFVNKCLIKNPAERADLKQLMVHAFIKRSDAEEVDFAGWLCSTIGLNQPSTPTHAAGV
pIC50: −log10 of the molar value.
Property: pIC50; scope: individual compounds

- Sample Smiles: "COCC1(NS(=O)(=O)Nc2nccc(Cc3cc(C(N)=O)c(Nc4ccc(I)cc4F)c(F)c3F)c2F)CC1"
  pIC50: 8.10
- Sample Smiles: "COCCNS(=O)(=O)Nc1nccc(Cc2cc(C(=O)NOC(C)C)c(Nc3ccc(I)cc3F)c(F)c2F)c1F"
  pIC50: 8.15
- Sample Smiles: "COCCNS(=O)(=O)Nc1nccc(Cc2cc(C(N)=O)c(Nc3ccc(I)cc3F)cc2F)c1F"
  pIC50: 6.56
- Sample Smiles: "COCCNS(=O)(=O)Nc1nccc(Cc2cc(C(N)=O)c(Nc3ccc(I)cc3F)n(C)c2=O)c1F"
  pIC50: 6.31

###

Property: pIC50; scope: individual molecules
molecular target: MEK1 (Homo sapiens, UniProt Q02750); construct: purchased Thermo Fisher Scientific Inc. (MEK1, CRAF); Carna Biosciences, Inc. (ERK2); assay: MEK1-inhibiting activity, fluorescent polarization method (CRAF/MEK1/ERK2 cascade, IMAP); format: biochemical; settings: Table 3
pIC50: −log10 of the molar value.
Metric: pIC50

- Molecule: "CNS(=O)(=O)Nc1nccc(Cc2cc(C(N)=O)c(Nc3ccc4sccc4c3F)c(F)c2F)c1F"
  Value Reported: 8.70
- Molecule: "CNS(=O)(=O)Nc1nccc(Cc2cc(C(N)=O)c(Nc3ccc(I)cc3F)cn2)c1F"
  Value Reported: 8.22
- Molecule: "CNS(C)(=O)=Nc1nccc(Cc2cc(C(N)=O)c(Nc3ccc(I)cc3F)c(F)c2F)c1F (stereo not drawn)"
  Value Reported: 7.39

###

target: MEK1 (Homo sapiens); construct: purchased Thermo Fisher Scientific Inc. (MEK1, CRAF); Carna Biosciences, Inc. (ERK2); experiment: MEK1-inhibiting activity, fluorescent polarization method (CRAF/MEK1/ERK2 cascade, IMAP); type: biochemical; details: Table 3; read-out: MEK1 IC50
pIC50: −log10 of the molar value.
Metric: pIC50

- Molecule: "CNS(=O)(=O)Nc1nccc(Cn2cc(C(N)=O)c(Nc3ccc(I)cc3F)c(F)c2=O)c1F [Compound N-1]"
  Assay Target: "MEK1 (Homo sapiens)"
  Value Reported: 9.00
- Molecule: "CCCS(=O)(=O)Nc1cccc(Cc2cc(C(N)=O)c(Nc3ccc(I)cc3F)c(F)c2F)c1F [Compound E-18]"
  Assay Target: "MEK1 (Homo sapiens)"
  Value Reported: 6.44
- Molecule: "CNS(=O)(=O)Nc1nccc(Cc2cc(C(=O)NOC)c(Nc3ccc(I)cc3F)c(F)c2F)c1F [Compound A-13]"
  Assay Target: "MEK1 (Homo sapiens)"
  Value Reported: 9.00
- Molecule: "CC1(NS(=O)(=O)Nc2nccc(Cc3cc(C(=O)NC4CC4)c(Nc4ccc(C5CC5)cc4F)c(F)c3F)c2F)CCC1 [Compound G-5]"
  Assay Target: "MEK1 (Homo sapiens)"
  Value Reported: 6.12
- Molecule: "COCCNS(=O)(=O)Nc1nccc(Cc2cc(C(=O)NOC(C)(C)C)c(Nc3ccc(I)cc3F)c(F)c2F)c1F [Compound A-9]"
  Assay Target: "MEK1 (Homo sapiens)"
  Value Reported: 8.40
- Molecule: "CNC(=O)c1cc(Cc2ccnc(NS(=O)(=O)NC)c2F)c(F)c(F)c1Nc1ccc(I)cc1F [Compound A-7]"
  Assay Target: "MEK1 (Homo sapiens)"
  Value Reported: 7.74
- Molecule: "CNS(=O)(=O)Nc1nccc(Cn2cc(C(N)=O)c(Nc3ccc(SC)cc3F)c(F)c2=O)c1F [Compound N-3]"
  Assay Target: "MEK1 (Homo sapiens)"
  Value Reported: 8.40
- Molecule: "CNS(=O)(=O)Nc1nccc(Cc2cc(C(N)=O)c(Nc3ccc(I)cc3F)n3cncc23)c1F [Compound M-1]"
  Assay Target: "MEK1 (Homo sapiens)"
  Value Reported: 8.30
- Molecule: "CCNS(=O)(=O)Nc1cccc(Cc2cc(C(=O)NC3CC3)c(Nc3ccc(I)cc3F)n(C)c2=O)c1F [Compound K-13]"
  Assay Target: "MEK1 (Homo sapiens)"
  Value Reported: 6.94
- Molecule: "NC(=O)c1cc(Cc2ccnc(NS(=O)(=O)NC3CCOCC3)c2F)c(F)c(F)c1Nc1ccc(I)cc1F [Compound A-29]"
  Assay Target: "MEK1 (Homo sapiens)"
  Value Reported: 7.85
- Molecule: "CCS(=O)(=O)Nc1nccc(Cc2cc(C(=O)NC3CC3)c(Nc3ccc(C4CC4)cc3F)c(F)c2F)c1F [Compound G-7]"
  Assay Target: "MEK1 (Homo sapiens)"
  Value Reported: 5.61
- Molecule: "Cn1c(Nc2ccc(I)cc2F)c(C(=O)NOC(C)(C)C)cc(Cc2ccnc(NS(=O)(=O)NC3CC3)c2F)c1=O [Compound J-11]"
  Assay Target: "MEK1 (Homo sapiens)"
  Value Reported: 7.32
- Molecule: "CNS(=O)(=O)Nc1nccc(Cc2cc(C(N)=O)c(Nc3ccc4sccc4c3)c(F)c2F)c1F [Compound H-2]"
  Assay Target: "MEK1 (Homo sapiens)"
  Value Reported: 7.31
- Molecule: "NC(=O)c1cc(Cc2ccnc(NS(=O)(=O)NCCO)c2F)c(F)c(F)c1Nc1ccc(I)cc1F [Compound B-9]"
  Assay Target: "MEK1 (Homo sapiens)"
  Value Reported: 8.70
- Molecule: "CCS(=O)(=O)Nc1cccc(Cc2cc(C(N)=O)c(Nc3ccc(I)cc3Cl)c(F)c2F)c1F [Compound E-11]"
  Assay Target: "MEK1 (Homo sapiens)"
  Value Reported: 6.34
- Molecule: "CNS(=O)(=O)Nc1nccc(Cc2cc(C(=O)NOC)c(Nc3ccc(Cl)cc3F)c(F)c2F)c1F [Compound G-4]"
  Assay Target: "MEK1 (Homo sapiens)"
  Value Reported: 7.28
- Molecule: "NC(=O)c1cc(Cc2ccnc(NS(=O)(=O)NC3CC3)c2F)c(F)cc1Nc1ccc(I)cc1F [Compound I-3]"
  Assay Target: "MEK1 (Homo sapiens)"
  Value Reported: 7.26
- Molecule: "CC1(NS(=O)(=O)Nc2nccc(Cc3cc(C(=O)NC4CC4)c(Nc4ccc(I)cc4F)c(F)c3F)c2F)CCC1 [Compound A-47]"
  Assay Target: "MEK1 (Homo sapiens)"
  Value Reported: 7.41
- Molecule: "CNS(=O)(=O)Nc1nccc(Cn2cc(C(=O)NC3CC3)c(Nc3ccc(I)cc3F)c(C)c2=O)c1F [Compound P-6]"
  Assay Target: "MEK1 (Homo sapiens)"
  Value Reported: 7.89
- Molecule: "CCS(=O)(=O)Nc1nccc(Cc2cc(C(=O)NOC)c(Nc3ccc(C4CC4)cc3F)c(F)c2F)c1F [Compound G-8]"
  Assay Target: "MEK1 (Homo sapiens)"
  Value Reported: 7.28
- Molecule: "COCC(C)(C)NS(=O)(=O)Nc1cccc(Cc2cc(C(N)=O)c(Nc3ccc(I)cc3F)c(F)c2F)c1F [Compound D-2]"
  Assay Target: "MEK1 (Homo sapiens)"
  Value Reported: 6.62
- Molecule: "C=Cc1ccc(Nc2c(C(N)=O)cc(Cc3ccnc(NS(=O)(=O)NC)c3F)c(F)c2F)c(F)c1 [Compound A-19]"
  Assay Target: "MEK1 (Homo sapiens)"
  Value Reported: 7.52
- Molecule: "CNS(=O)(=O)Nc1cccc(Cc2cc(C(=O)NOC)c(Nc3ccc(I)cc3F)c(F)c2F)c1F [Compound D-11]"
  Assay Target: "MEK1 (Homo sapiens)"
  Value Reported: 8.22
- Molecule: "C#Cc1ccc(Nc2c(C(N)=O)cc(Cc3ccnc(NS(=O)(=O)NC)c3F)c(F)c2F)c(F)c1 [Compound A-26]"
  Assay Target: "MEK1 (Homo sapiens)"
  Value Reported: 8.30
- Molecule: "CCS(=O)(=O)Nc1cccc(Cc2cc(C(=O)NOC)c(Nc3ccc(I)cc3Cl)c(F)c2F)c1F [Compound E-9]"
  Assay Target: "MEK1 (Homo sapiens)"
  Value Reported: 7.02
- Molecule: "CNS(=O)(=O)Nc1cccc(Cc2cc(C(=O)NC3CC3)c(Nc3ccc(I)cc3F)n(C)c2=O)c1F [Compound K-4]"
  Assay Target: "MEK1 (Homo sapiens)"
  Value Reported: 6.97
- Molecule: "COCCS(=O)(=O)Nc1cccc(Cc2cc(C(N)=O)c(Nc3ccc(I)cc3F)c(F)c2F)c1 [Compound F-3]"
  Assay Target: "MEK1 (Homo sapiens)"
  Value Reported: 6.42
- Molecule: "CNS(C)(=O)=Nc1cc(Cc2cc(C(N)=O)c(Nc3ccc(I)cc3F)c(F)c2F)ccn1 (centres unmarked) [Compound C-4]"
  Assay Target: "MEK1 (Homo sapiens)"
  Value Reported: 6.65
- Molecule: "NC(=O)c1cc(Cc2ccnc(NS(=O)(=O)NCCF)c2F)c(F)c(F)c1Nc1ccc(I)cc1F [Compound A-42]"
  Assay Target: "MEK1 (Homo sapiens)"
  Value Reported: 7.74
